Overview of reported Max. Activity (fold over background) across a group of binders:
# system: Vg9/Vd2 TCR on SKW3_4 cells (UniProt Q99603)
# Sequence (Q99603 21-122, chain 1 of 2): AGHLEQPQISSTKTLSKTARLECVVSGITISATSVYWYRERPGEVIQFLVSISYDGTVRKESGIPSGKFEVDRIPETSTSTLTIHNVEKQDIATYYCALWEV
# Sequence (A0JD36 20-115, chain 2 of 2, further chain): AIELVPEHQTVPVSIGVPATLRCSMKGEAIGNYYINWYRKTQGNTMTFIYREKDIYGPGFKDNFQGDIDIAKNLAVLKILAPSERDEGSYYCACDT
# method: flow cytometry, dose-response binding at 37° C. on SKW3_4 cells expressing Vg9/Vd2
Note: the reply should be a number with no unit written.

Check out these entries, answers already filled in.
VG9B60 (antibody, human IgG1, kappa, V domains shown) VH: QVQLVQSGAEVKKPGASVKVSCKASGYTFTGYYMHWVRQAPGQGLEWMGRINPNSGVTHYAQKFQGRVTMTRDTSISTAYMELSRLRSDDTAVYYCARGGSLVRGVISGLDYWGQGTTVTVSS VL: DIVMTQSPGTLSLSPGERATLSCRASQSFSGSYLAWYQQKPGQAPSLLIYGASSRATGIPDRFSGSGSGTDFTLTISRLEPEDFALYYCQQYGSSPPYTFGQGTKVEIKR : 16.7
VG9B33 (antibody, human IgG1, kappa, V domains shown) VH: EVQLVESGGGLVKPGGSLRLSCAASGFTFSSYNMNWVRQAPGKGLEWVSSISTSSSYIYYADSVKGRFTISRDNAKNSLYLQMNGLRAEDTAVYYCARDTSVTKYPDTFDIWGQGTMVTVSS VL: DIVMTQSPSSLSASVGDRVTITCRASQDINNYLAWFQQKPGKVPNLLIYGASTLQSGVPSRFTGSGSGTDFTLTISSLQPEDVATYYCQKYNSAPFTFGPGTKVDIKR : 173
VG9B21 (antibody, human IgG1, kappa, V domains shown) VH: EVQLLESGGGLVKPGGSLRLSCAASGFSFSNYDMNWVRQAPRKGLEWVSSISSSSHYIYYADSLKGRFTISRDNAKNSLFLQMNSLRAEDTAVYYCARDRGVTTDYYYYALDVWGQGTMVTVSS VL: DIVMTQSPSSLSASVGDRVTITCRASQGIYNYLAWYQQKPGNVPKLLIYAASTLQSGVPSRFSGSGSGTDFSLTISSLQPEDFTTYYCQKYNRAPFTFGPGTKVDIKR : 39.7

Lab note: next binder to report on.
Challenge: Return reported Max. Activity (fold over background); argument: VG9B191 (antibody, human IgG1, lambda, V domains shown) VH: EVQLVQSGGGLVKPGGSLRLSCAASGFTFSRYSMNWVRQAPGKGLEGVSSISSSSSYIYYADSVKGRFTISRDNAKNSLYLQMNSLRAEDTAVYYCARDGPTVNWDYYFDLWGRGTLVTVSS VL: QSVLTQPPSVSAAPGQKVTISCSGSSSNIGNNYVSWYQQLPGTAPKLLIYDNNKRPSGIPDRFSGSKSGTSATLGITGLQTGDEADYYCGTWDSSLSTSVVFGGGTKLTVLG
Response given: 156
